Values were extracted from ChEMBL document CHEMBL3091351.

Experiment: Binding affinity to pig adrenal alpha3beta4 nAChR by radioligand displacement assay
Parameters: species or system Sus scrofa
pKi: −log10 of the molar value.
observable: pKi

[
  {
    "compound": "O=c1cccc2n1C[C@@H]1CNC[C@H]2C1 [CYTISINICLINE]",
    "measurement": 7.72
  }
]

====

Molecular target: Neuronal acetylcholine receptor; alpha4/beta2 (Rattus norvegicus, UniProt P09483+P12390)
Sequence (P09483 whole entry): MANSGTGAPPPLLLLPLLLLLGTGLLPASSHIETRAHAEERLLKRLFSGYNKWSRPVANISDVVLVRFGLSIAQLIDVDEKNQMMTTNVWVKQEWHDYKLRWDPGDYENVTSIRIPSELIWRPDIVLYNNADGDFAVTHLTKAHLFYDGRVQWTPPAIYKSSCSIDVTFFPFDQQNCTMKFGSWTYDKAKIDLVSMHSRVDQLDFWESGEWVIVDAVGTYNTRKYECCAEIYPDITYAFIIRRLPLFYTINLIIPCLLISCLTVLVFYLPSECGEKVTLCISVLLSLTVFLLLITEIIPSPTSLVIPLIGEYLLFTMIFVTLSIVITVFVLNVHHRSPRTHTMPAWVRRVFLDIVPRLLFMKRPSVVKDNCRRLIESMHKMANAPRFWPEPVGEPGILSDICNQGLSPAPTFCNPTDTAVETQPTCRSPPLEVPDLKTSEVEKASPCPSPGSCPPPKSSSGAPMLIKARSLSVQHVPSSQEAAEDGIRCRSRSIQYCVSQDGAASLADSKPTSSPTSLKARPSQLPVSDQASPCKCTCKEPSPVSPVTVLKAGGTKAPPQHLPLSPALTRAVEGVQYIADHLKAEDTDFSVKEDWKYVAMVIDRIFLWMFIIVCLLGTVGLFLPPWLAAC
Sequence (P12390 whole entry): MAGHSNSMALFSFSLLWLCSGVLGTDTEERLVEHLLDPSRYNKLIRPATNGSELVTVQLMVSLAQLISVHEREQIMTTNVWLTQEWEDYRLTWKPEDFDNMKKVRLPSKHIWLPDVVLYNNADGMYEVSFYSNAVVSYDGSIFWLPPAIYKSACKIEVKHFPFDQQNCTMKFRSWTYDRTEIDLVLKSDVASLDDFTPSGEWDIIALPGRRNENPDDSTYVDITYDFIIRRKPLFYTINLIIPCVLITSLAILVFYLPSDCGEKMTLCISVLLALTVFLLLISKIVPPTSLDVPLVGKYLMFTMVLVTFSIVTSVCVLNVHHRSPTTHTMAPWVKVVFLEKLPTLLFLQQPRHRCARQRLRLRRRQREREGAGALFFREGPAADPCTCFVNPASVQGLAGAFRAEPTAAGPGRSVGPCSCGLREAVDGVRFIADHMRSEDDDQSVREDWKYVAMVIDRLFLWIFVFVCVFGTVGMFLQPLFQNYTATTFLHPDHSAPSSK
Assay: Displacement of [3H]epibatidine from alpha4beta2 nAChR in Sprague-Dawley rat forebrain P2 fraction after 90 mins by liquid scintillation counting analysis
pKi: −log10 of the molar value.
Below, each of the compounds is paired with its reported pKi value.
observable: pKi

[
  {
    "smiles.input": "O=C(c1cccnc1)N1C[C@@H]2CNC[C@@H](C2)C1",
    "observable": "pKi",
    "bound.type": "=",
    "measurement": 6.34
  },
  {
    "smiles.input": "O=C(c1ccc2ccccc2n1)N1C[C@@H]2CNC[C@@H](C2)C1",
    "observable": "pKi",
    "bound.type": "<",
    "measurement": 6.00
  },
  {
    "smiles.input": "CN(C)C(=O)N1C[C@@H]2CNC[C@@H](C2)C1",
    "observable": "pKi",
    "bound.type": "=",
    "measurement": 6.30
  },
  {
    "smiles.input": "O=C(c1ccnc2ccccc12)N1C[C@@H]2CNC[C@@H](C2)C1",
    "observable": "pKi",
    "bound.type": "=",
    "measurement": 6.79
  },
  {
    "smiles.input": "CS(=O)(=O)N1C[C@@H]2CNC[C@@H](C2)C1",
    "observable": "pKi",
    "bound.type": "<",
    "measurement": 5.30
  },
  {
    "smiles.input": "CC(C)C(=O)N1C[C@@H]2CNC[C@@H](C2)C1",
    "observable": "pKi",
    "bound.type": "=",
    "measurement": 7.30
  },
  {
    "smiles.input": "N#Cc1ccc(C(=O)N2C[C@@H]3CNC[C@@H](C3)C2)cc1",
    "observable": "pKi",
    "bound.type": "=",
    "measurement": 7.68
  },
  {
    "smiles.input": "O=C(c1ccc(Cl)cc1)N1C[C@@H]2CNC[C@@H](C2)C1",
    "observable": "pKi",
    "bound.type": "=",
    "measurement": 6.89
  },
  {
    "smiles.input": "CCN1C[C@H]2C[C@@H](C1)CN(C(C)=O)C2",
    "observable": "pKi",
    "bound.type": "<",
    "measurement": 5.30
  },
  {
    "smiles.input": "C1NCC2CNCC1C2",
    "observable": "pKi",
    "bound.type": "=",
    "measurement": 6.22
  },
  {
    "smiles.input": "CCCC(=O)N1C[C@@H]2CNC[C@@H](C2)C1",
    "observable": "pKi",
    "bound.type": "=",
    "measurement": 8.44
  },
  {
    "smiles.input": "O=C(c1cccc(Cl)c1)N1C[C@@H]2CNC[C@@H](C2)C1",
    "observable": "pKi",
    "bound.type": "<",
    "measurement": 6.00
  },
  {
    "smiles.input": "N#Cc1cccc(S(=O)(=O)N2C[C@@H]3CNC[C@@H](C3)C2)c1",
    "observable": "pKi",
    "bound.type": "=",
    "measurement": 6.01
  },
  {
    "smiles.input": "O=[N+]([O-])c1ccc(S(=O)(=O)N2C[C@@H]3CNC[C@@H](C3)C2)cc1",
    "observable": "pKi",
    "bound.type": "=",
    "measurement": 6.87
  },
  {
    "smiles.input": "CC(C)(C)OC(=O)N1C[C@@H]2CNC[C@@H](C2)C1",
    "observable": "pKi",
    "bound.type": "=",
    "measurement": 7.35
  },
  {
    "smiles.input": "O=C(c1ccccc1[N+](=O)[O-])N1C[C@@H]2CNC[C@@H](C2)C1",
    "observable": "pKi",
    "bound.type": "<",
    "measurement": 5.00
  },
  {
    "smiles.input": "O=S(=O)(c1ccccc1)N1C[C@@H]2CNC[C@@H](C2)C1",
    "observable": "pKi",
    "bound.type": "<",
    "measurement": 5.30
  },
  {
    "smiles.input": "CCCN1C[C@H]2C[C@@H](C1)CN(C(C)=O)C2",
    "observable": "pKi",
    "bound.type": "<",
    "measurement": 5.30
  },
  {
    "smiles.input": "O=C(c1ccc(F)cc1)N1C[C@@H]2CNC[C@@H](C2)C1",
    "observable": "pKi",
    "bound.type": "=",
    "measurement": 6.70
  },
  {
    "smiles.input": "O=C(c1ccc2ccccc2c1)N1C[C@@H]2CNC[C@@H](C2)C1",
    "observable": "pKi",
    "bound.type": "=",
    "measurement": 6.35
  },
  {
    "smiles.input": "O=C(c1cncc(Br)c1)N1C[C@@H]2CNC[C@@H](C2)C1",
    "observable": "pKi",
    "bound.type": "=",
    "measurement": 6.54
  },
  {
    "smiles.input": "O=C(CC1CCCC1)N1C[C@@H]2CNC[C@@H](C2)C1",
    "observable": "pKi",
    "bound.type": "=",
    "measurement": 7.36
  },
  {
    "smiles.input": "O=C(c1ccc(O)cc1)N1C[C@@H]2CNC[C@@H](C2)C1",
    "observable": "pKi",
    "bound.type": "=",
    "measurement": 6.98
  },
  {
    "smiles.input": "O=C(c1cccc(C(F)(F)F)c1)N1C[C@@H]2CNC[C@@H](C2)C1",
    "observable": "pKi",
    "bound.type": "=",
    "measurement": 6.83
  },
  {
    "smiles.input": "O=C(N1CCOCC1)N1C[C@@H]2CNC[C@@H](C2)C1",
    "observable": "pKi",
    "bound.type": "=",
    "measurement": 5.42
  },
  {
    "smiles.input": "Cc1ccccc1C(=O)N1C[C@@H]2CNC[C@@H](C2)C1",
    "observable": "pKi",
    "bound.type": "<",
    "measurement": 5.00
  },
  {
    "smiles.input": "O=C(C1CCCCC1)N1C[C@@H]2CNC[C@@H](C2)C1",
    "observable": "pKi",
    "bound.type": "<",
    "measurement": 5.30
  },
  {
    "smiles.input": "Cc1ccc(S(=O)(=O)N2C[C@@H]3CNC[C@@H](C3)C2)cc1",
    "observable": "pKi",
    "bound.type": "=",
    "measurement": 6.07
  },
  {
    "smiles.input": "O=C(c1cccc(F)c1)N1C[C@@H]2CNC[C@@H](C2)C1",
    "observable": "pKi",
    "bound.type": "=",
    "measurement": 6.41
  },
  {
    "smiles.input": "O=C(c1ccc(Br)cc1)N1C[C@@H]2CNC[C@@H](C2)C1",
    "observable": "pKi",
    "bound.type": "=",
    "measurement": 6.86
  },
  {
    "smiles.input": "COc1ccc(C(=O)N2C[C@@H]3CNC[C@@H](C3)C2)c(OC)c1",
    "observable": "pKi",
    "bound.type": "<",
    "measurement": 6.00
  },
  {
    "smiles.input": "CCC(=O)N1C[C@@H]2CNC[C@@H](C2)C1",
    "observable": "pKi",
    "bound.type": "=",
    "measurement": 8.35
  },
  {
    "smiles.input": "CC(=O)N1C[C@@H]2C[C@@H](CN(C)C2)C1",
    "observable": "pKi",
    "bound.type": "=",
    "measurement": 6.70
  },
  {
    "smiles.input": "c1ccc(CN2C[C@@H]3CNC[C@@H](C3)C2)cc1",
    "observable": "pKi",
    "bound.type": "<",
    "measurement": 5.00
  },
  {
    "smiles.input": "O=C(c1c[nH]c2ccccc12)N1C[C@@H]2CNC[C@@H](C2)C1",
    "observable": "pKi",
    "bound.type": "<",
    "measurement": 5.00
  },
  {
    "smiles.input": "O=C(N1CCC(Cc2ccccc2)CC1)N1C[C@@H]2CNC[C@@H](C2)C1",
    "observable": "pKi",
    "bound.type": "<",
    "measurement": 5.00
  },
  {
    "smiles.input": "O=C(c1cccc2ccccc12)N1C[C@@H]2CNC[C@@H](C2)C1",
    "observable": "pKi",
    "bound.type": "<",
    "measurement": 5.00
  },
  {
    "smiles.input": "O=C(c1ccc2ncccc2c1)N1C[C@@H]2CNC[C@@H](C2)C1",
    "observable": "pKi",
    "bound.type": "=",
    "measurement": 7.09
  },
  {
    "smiles.input": "O=C(C1CCCC1)N1C[C@@H]2CNC[C@@H](C2)C1",
    "observable": "pKi",
    "bound.type": "=",
    "measurement": 7.97
  },
  {
    "smiles.input": "O=C(c1ccc([N+](=O)[O-])cc1)N1C[C@@H]2CNC[C@@H](C2)C1",
    "observable": "pKi",
    "bound.type": "=",
    "measurement": 7.80
  },
  {
    "smiles.input": "O=C(c1cc2ccccc2[nH]1)N1C[C@@H]2CNC[C@@H](C2)C1",
    "observable": "pKi",
    "bound.type": "<",
    "measurement": 5.00
  },
  {
    "smiles.input": "N#Cc1ccc(S(=O)(=O)N2C[C@@H]3CNC[C@@H](C3)C2)cc1",
    "observable": "pKi",
    "bound.type": "=",
    "measurement": 6.19
  }
]
